The following compounds are shown together with reported melting point values.

In the examples that follow, each entry is paired with its recorded melting point.
Memo: NNc1oc(-c2ccccc2)nc1C(N)=O , reported melting point: 173 to 175 °C

Memo: O=C1NCCc2ccc(Br)cc21 , reported melting point: 144 to 146 °C

Memo: CN1C(=O)CC(O)C1=O (centres undefined) , reported melting point: 82 to 87 °C

Memo: Cc1cc(Cl)n2c(nc3ccccc32)c1C#N , reported melting point: 210 to 212 °C

Memo: Nc1ccccc1C(=O)NCCO , reported melting point: 92 to 94 °C

Memo: Cn1nnnc1Sc1ccc(Cl)cc1N , reported melting point: 128 to 130 °C

Memo: COc1ccc(S(=O)(=O)Nc2cccc(CN)c2)cc1 , reported melting point: 125 to 127 °C

Memo: CCc1c(C(=O)O)cnn1C , reported melting point: 144 to 146 °C

Memo: O=[N+]([O-])c1ccc(CCS(=O)(=O)Cl)cc1 , reported melting point: 89 to 91 °C

Memo: NC(=O)c1[nH]cnc1N , reported melting point: 249 to 251 °C

New cases:
Memo: Nc1nc(-c2c(F)cccc2F)co1 , reported melting point: 139 to 141 °C

* * *

measure: melting point

Memo: O=C1NC(=O)C2(CC(C(=O)O)C2)N1 (stereo not drawn) , reported melting point: 246 to 248 °C

Memo: CCOC(=O)NC(=N)N , reported melting point: 104 to 106 °C

Memo: O=C(CN1CCNCC1)N1CCc2ccccc21 , reported melting point: 139 to 141 °C

Memo: CN1C(=O)C=C(Br)C1=O , reported melting point: 84 to 86 °C

Memo: Cc1ccc(C(C)O)cc1[N+](=O)[O-] (stereo not drawn) , reported melting point: 48 to 50 °C

New cases:
Memo: OC(c1ccccc1)c1nc2cc(Cl)ccc2[nH]1 (stereo not drawn) , reported melting point: 184 to 186 °C

Memo: O=C(O)c1c2c(cc([N+](=O)[O-])c1[N+](=O)[O-])OCCO2 , reported melting point: 210 to 212 °C

Memo: CN(C)C(=O)COc1ccc(N)c(F)c1 , reported melting point: 106 to 108 °C

Memo: O=C(CCl)c1cc([N+](=O)[O-])c[nH]1 , reported melting point: 199 to 201 °C

Memo: C=CC(=O)Nc1ccc(C(=O)O)cc1 , reported melting point: 246 to 248 °C

Memo: CC(c1ccccc1)C(O)C(=O)O (stereo not drawn) , reported melting point: 115 to 117 °C

Memo: Clc1nc(-c2cccnc2)nc2sc(-c3ccccc3)cc12 , reported melting point: 179 to 182 °C

Memo: CS(=O)(=O)c1cccc(O)c1 , reported melting point: 69 to 71 °C

* * *

measure: melting point

In the examples that follow, each entry is paired with its recorded melting point.
Memo: CNc1cnnc2ccccc12 , reported melting point: 232 to 234 °C

Memo: c1cc2c(s1)CCNC2C1CC1 (stereo not drawn) , reported melting point: 44 to 46 °C

Memo: Nc1c(Cl)ncnc1-n1cccn1 , reported melting point: 110 to 112 °C

New cases:
Memo: O=c1[nH]c(-c2cccc(Oc3ccccc3)c2)no1 , reported melting point: 189 to 191 °C

Memo: O=C1C(Br)CCN1c1c(F)cccc1F (stereo not drawn) , reported melting point: 79 to 81 °C

Memo: O=C(O)c1cc(-c2ccco2)nc2onc(-c3ccco3)c12 , reported melting point: 269 to 271 °C

Memo: Nc1ccc(Sc2nncs2)c(Cl)c1 , reported melting point: 112 to 114 °C

Memo: C=CCNS(=O)(=O)Cc1ccc(N)cc1 , reported melting point: 124 to 126 °C

Memo: COC(=O)Nc1cccc(O)c1 , reported melting point: 95 to 97 °C

Memo: Cc1ccc(C(=O)O)c(O)c1C , reported melting point: 197 to 199 °C

Memo: Cn1ccnc1C(=O)c1ccncc1 , reported melting point: 138 to 140 °C

Memo: O=C1c2ccccc2C(=O)N1CC(O)CN1C(=O)c2ccccc2C1=O , reported melting point: 206 to 208 °C

Memo: CCOC(=O)c1[nH]c(C)c(C(=O)OCC)c1CC , reported melting point: 108 to 110 °C

Every entry's value here was drawn from a melting point compilation (Tetko et al.).
